The entries below come with measured EC50 values attached.
Biological target: Heat shock factor protein 1 (Mus musculus, UniProt P38532)
Sequence (P38532 whole entry): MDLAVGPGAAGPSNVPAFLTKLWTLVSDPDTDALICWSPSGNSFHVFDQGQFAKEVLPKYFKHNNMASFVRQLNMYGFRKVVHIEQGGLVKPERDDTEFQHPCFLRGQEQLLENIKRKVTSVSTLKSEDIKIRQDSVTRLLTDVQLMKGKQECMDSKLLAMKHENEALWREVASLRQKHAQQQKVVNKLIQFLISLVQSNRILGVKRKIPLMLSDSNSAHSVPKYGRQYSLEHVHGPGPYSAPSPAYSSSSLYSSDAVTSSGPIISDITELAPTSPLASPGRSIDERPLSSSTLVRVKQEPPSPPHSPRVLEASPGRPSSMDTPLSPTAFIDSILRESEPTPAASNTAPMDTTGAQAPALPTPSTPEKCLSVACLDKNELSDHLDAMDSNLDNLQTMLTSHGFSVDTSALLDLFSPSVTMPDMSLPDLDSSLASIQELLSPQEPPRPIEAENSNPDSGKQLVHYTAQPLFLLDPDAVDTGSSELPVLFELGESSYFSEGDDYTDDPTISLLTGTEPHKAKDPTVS
Assay: inhibition of MG132-induced HSE-luciferase signal, confirmation, cell-based, NIH3T3, luminescence, dose retest (AID 2382);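 further: NIH3T3 fibroblasts with HSF1-driven luciferase reporter stressed by proteasome inhibitor MG132; luminescence from HSF1-driven luciferase expression after 8 hours of MG132 stress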
Assay type: functional
The source made the active and inactive calls.
reportedMetric: EC50

# compound, result
rows = [
    ("CCOC(=O)c1ccc(NC(=O)N2CCN(S(C)(=O)=O)CC2)cc1", "> 195 µM (not active)"),
    ("O=C(Nc1cccc2ncccc12)C(Cl)(Cl)Cl", "> 195 µM (not active)"),
    ("CC1Cc2cc(C(=O)C3=C(O)C(=O)N(CC4CCCO4)C3c3ccco3)ccc2O1 (centres undefined)", "69.9 µM (active)"),
    ("CC(Nc1ncnc2sccc12)c1ccccc1 (centres undefined)", "> 195 µM (not active)"),
    ("Cc1ccc(C(=O)ON=C(N)c2ccccn2)c(C)c1", "< 0.16 µM (active)"),
    ("Cc1cc(C(=O)Nc2cccc(C(=O)O)c2)oc1C", "6.56 µM (active)"),
    ("CN(C)c1ccc(/C=N\\Nc2nc(O)cc(-c3ccccc3)n2)cc1", "> 195 µM (not active)"),
    ("O=C(CCc1nc(O)c2ccccc2n1)NCc1ccco1", "> 195 µM (not active)"),
    ("CCC1Sc2ccc(S(=O)(=O)Nc3ccc(OC)cc3)cc2NC1=O (centres undefined)", "> 195 µM (not active)"),
    ("Cc1cc2ccccc2n1CCNC(=O)C(C)C", "> 195 µM (not active)"),
    ("O=S1(=O)N[C@H](c2ccccc2)C[C@H](c2ccc(C(F)(F)F)cc2)O1", "> 195 µM (not active)"),
    ("O=C(NCCCN1CCCC1=O)c1cccc(N2CCCC2=O)c1", "> 195 µM (not active)"),
    ("CCSc1nnc(-c2ccc(S(=O)(=O)NCc3cccs3)cc2)o1", "> 195 µM (not active)"),
    ("Cc1cc(NC(=O)COc2coc(CN3CCN(c4ccccc4F)CC3)cc2=O)no1", "> 195 µM (not active)"),
    ("N#CCc1nn(-c2ccccc2)c2ncnc(N)c12", "30.8 µM (active)"),
    ("COc1ccc(Cl)cc1C(=O)NCC(=O)OCc1ccccc1", "> 195 µM (not active)"),
    ("O=C(Nc1cccnc1)c1coc(=O)c2ccccc12", "> 195 µM (not active)"),
    ("Cc1cc(C)nc(-n2c(C)nc3cc(Cl)ccc3c2=O)c1", "35.9 µM (active)"),
    ("Cc1nn(-c2ccccc2Cl)c(Cl)c1/C=N/Nc1nc2ccccc2s1", "< 0.16 µM (active)"),
]

* * *

Target: Zinc finger protein mex-5 (Caenorhabditis elegans)
Sequence (Q9XUB2 whole entry): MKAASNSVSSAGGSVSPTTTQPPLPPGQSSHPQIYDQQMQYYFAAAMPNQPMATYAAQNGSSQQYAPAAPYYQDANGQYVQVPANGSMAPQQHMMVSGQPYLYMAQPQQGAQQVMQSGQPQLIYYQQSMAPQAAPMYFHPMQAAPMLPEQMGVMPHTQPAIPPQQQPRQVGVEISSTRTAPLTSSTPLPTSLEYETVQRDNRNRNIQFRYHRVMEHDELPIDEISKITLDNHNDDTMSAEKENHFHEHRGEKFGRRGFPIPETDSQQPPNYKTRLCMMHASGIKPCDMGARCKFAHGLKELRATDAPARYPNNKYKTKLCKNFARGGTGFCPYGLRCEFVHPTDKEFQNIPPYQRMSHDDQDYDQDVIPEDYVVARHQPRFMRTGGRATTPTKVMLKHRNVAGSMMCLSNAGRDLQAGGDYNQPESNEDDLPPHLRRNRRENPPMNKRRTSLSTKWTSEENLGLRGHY
Test: MEX-5/TCR-2 RNA interaction inhibitors, dose response, biochemical, C. elegans, fluorescence polarization (AID 1960)
Activity calls are given as the source filed them.

# compound, EC50
records = [
    ("O=C(O)c1[nH]c2ccccc2c1C(c1cc(Cl)cc([N+](=O)[O-])c1O)c1c(C(=O)O)[nH]c2ccccc12", "9.16 µM (active)"),
    ("Cc1ccc(Sc2ccc(C=C3C(=O)N(C)C(=O)N(C)C3=O)o2)cc1", "25.5 µM (inconclusive)"),
    ("Cc1cc(O)n2nc(N)c(N=Nc3ccccc3)c2n1", "15.2 µM (active)"),
    ("O=C(O)C1Nc2c(cccc2C(F)(F)F)C2C=CCC12 (configuration not stated)", "17.7 µM (active)"),
    ("O=c1oc2c3c4c(cc2s1)CCCN4CCC3", "24.1 µM (inconclusive)"),
    ("Cc1ccc(NC(=O)CN2C(=O)S/C(=C\\c3cccn3-c3cccc(C(=O)O)c3)C2=O)cc1C", "> 300 µM (not active)"),
    ("COCCN1C(=O)/C(=C/c2c(OC)cc(OC)cc2OC)C(=O)N(c2ccccc2)C1=O", "> 300 µM (not active)"),
]

* * *

Assay: Luminescence Cell-Based Dose Response HTS to Identify Inhibitors of 5'UTR Stem-Loop Driven Prion Protein mRNA Translation in H4 Neuroglioblastoma Cells. [Related pubchem assays: 1827 (Project Summary), 1813 (Primary HTS)]
Assay type: functional
Activity calls are given as the source filed them.
The entries below come with measured EC50 values attached.

# compound, EC50
data = [
    ("c1ccc(CCNc2ccnc3cc4ccccc4cc23)cc1", "17.3 µM (active)"),
    ("CCCCSc1nc2c(c(=O)n1CC)SC(C)C2 (centres undefined)", "> 60 µM (not active)"),
    ("CC1=NC(C)=C(C(=O)OCCNC(=O)c2ccccc2O)C(c2ccccc2[N+](=O)[O-])/C1=C(\\O)OCC1CCCO1 (centres undefined)", "> 120 µM (not active)"),
    ("CCOC(=O)c1c(C)[nH]c(C(=O)Cn2c(=O)c3c(ncn3CC)n(Cc3ccccc3)c2=O)c1C", "> 120 µM (not active)"),
]

* * *

The entries below come with measured AC50 values attached.
Molecular target: Replicative DNA helicase DnaB (Mycobacterium tuberculosis, UniProt P9WMR3)
Assay: DnaB intein splicing inhibitors, dose response, biochemical, cell-free fluorescence (AID 449749)
Type: functional
Activity calls are given as the source filed them.

# compound, AC50
measured = [
    ("Cc1ccc(C(c2c(C)n[nH]c2O)c2c(C)n[nH]c2O)cc1", "0.36 µM (active)"),
    ("Cc1c(C)n(O)c2ccc3nonc3c12", "> 380 µM (inactive)"),
    ("C=C(C)C(=O)NC1=NN(c2ccccc2)C(=O)C1", "3.66 µM (active)"),
    ("O=C1C=C(NCc2ccccc2)c2ccccc2C1=O", "> 380 µM (inconclusive)"),
    ("OC(COC(c1ccc(Cl)cc1)c1ccc(Cl)cc1)CN1CCc2ccccc2C1 (stereo unspecified)", "2.26 µM (active)"),
    ("CC(C)c1n[nH]c2c1C(c1ccc(OC(=O)c3ccco3)cc1)C(C#N)=C(N)O2 (stereo unspecified)", "6.85 µM (active)"),
]

* * *

Target: Cytochrome P450 2D6 (Homo sapiens, UniProt P10635);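 further: CYP2D6 member of a cytochrome P450 panel assay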
Sequence (P10635 whole entry): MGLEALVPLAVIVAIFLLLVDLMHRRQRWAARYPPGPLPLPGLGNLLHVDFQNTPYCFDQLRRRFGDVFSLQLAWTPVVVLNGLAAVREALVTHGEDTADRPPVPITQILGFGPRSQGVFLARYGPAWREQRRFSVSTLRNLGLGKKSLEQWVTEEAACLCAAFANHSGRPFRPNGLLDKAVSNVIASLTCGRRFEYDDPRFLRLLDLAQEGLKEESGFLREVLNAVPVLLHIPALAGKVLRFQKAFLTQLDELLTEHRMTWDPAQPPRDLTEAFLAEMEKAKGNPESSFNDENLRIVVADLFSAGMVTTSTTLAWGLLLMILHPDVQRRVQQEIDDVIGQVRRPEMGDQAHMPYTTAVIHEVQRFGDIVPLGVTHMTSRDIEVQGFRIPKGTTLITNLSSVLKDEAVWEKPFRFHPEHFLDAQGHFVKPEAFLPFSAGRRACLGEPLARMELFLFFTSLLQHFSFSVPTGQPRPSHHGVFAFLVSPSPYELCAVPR
The entries below come with measured AC50 values attached.

# compound, AC50
data = [
    ("COc1ccccc1CNc1nc(-c2cccnc2)nc2ccccc12", "25.1 µM (inconclusive)"),
    ("CC1CCC(NC(=O)c2ccc(CS(=O)(=O)Cc3ccccc3F)o2)CC1 (stereo not given)", "35.5 µM (inconclusive)"),
    ("CCN(CC)CCNC(=O)C(C)c1nn(C)c(=O)c2ccccc12 (stereo not given)", "20 µM (inconclusive)"),
    ("CCCSC1=C(C#N)C(c2cccnc2)C(C(=O)OCC)=C(c2ccccc2)N1 (stereo not given)", "39.8 µM (inconclusive)"),
    ("COc1ccc(-n2c(=O)c(-c3ccccc3)nc3cncnc32)cc1", "25.1 µM (inconclusive)"),
]

* * *

Test system: INS1
Experiment: beta cell apoptosis inhibitors, cytokine rescue, dose response, luminescence, retest (AID 449756);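 further: cell death triggered by IL-1 beta plus TNF-alpha plus IFN-gamma mixture; protective hits raise ATP signal compared with cytokine alone wells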
Type: functional, cell-based
Details: Rattus norvegicus
Activity calls are given as the source filed them.

# compound, AC50
data = [
    ("CCN(CC)CCNc1ncnc2c1sc1nc(N3CCOCC3)c3c(c12)CC(C)(C)SC3", "12.5 µM (active)"),
    ("CCc1ccc(-n2c(C)cc(/C=N/NC(=O)c3ccncc3)c2C)cc1", "14.9 µM (active)"),
    ("CCOc1ccc(-[n+]2c(-c3ccccc3)cn3c2CCCCC3)cc1", "0.822 µM (active)"),
    ("COCCNc1nc2c(c(=O)n(C)c(=O)n2C)n1Cc1cccc(C(F)(F)F)c1", "6.6 µM (active)"),
    ("CC1=NC(C)=C(C(=O)OCCNC(=O)c2ccccc2O)C(c2ccccc2[N+](=O)[O-])/C1=C(\\O)OCC1CCCO1 (stereo not given)", "40.6 µM (active)"),
]

// provenance: ChEMBL document CHEMBL1201862
